Test system: Escherichia coli
Method Description: Antimicrobial susceptibility testing (MIC), BD Phoenix Automated Microbiology System
Assay type: cell-based
Condition Label: Escherichia coli, read-out: minimal inhibiting concentration, Escherichia coli isolate 5
MIC listing for selected compounds.

- Compound: "CO/N=C(\\C(=O)N[C@@H]1C(=O)N2C(C(=O)O)=C(CSc3nc(=O)c(=O)[nH]n3C)CS[C@H]12)c1csc(N)n1"
  Endpoint: "MIC"
  Result: "> 32 µg/mL"
- Compound: "CO/N=C(\\C(=O)N[C@@H]1C(=O)N2C(C(=O)[O-])=C(C[N+]3(C)CCCC3)CS[C@H]12)c1csc(N)n1 [Cefe., Cefepime]"
  Endpoint: "MIC"
  Result: "8 µg/mL"
- Compound: "C[C@@H](O)[C@H]1C(=O)N2C(C(=O)O)=C(S[C@@H]3CN[C@H](C(=O)N(C)C)C3)[C@H](C)[C@H]12"
  Endpoint: "MIC"
  Result: "≤ 1 µg/mL"
- Compound: "O=C1CN(/N=C/c2ccc([N+](=O)[O-])o2)C(=O)N1"
  Endpoint: "MIC"
  Result: "≤ 16 µg/mL"
- Compound: "C[C@@H](O)[C@H]1C(=O)N2C(C(=O)O)=C(SCCN=CN)C[C@H]12"
  Endpoint: "MIC"
  Result: "≤ 1 µg/mL"

Turning now to a further compound:
Input line: Consider the compound shown here: CO/N=C(\C(=O)N[C@@H]1C(=O)N2C(C(=O)O)=C(COC(N)=O)CS[C@H]12)c1ccco1 What is its recorded MIC?
Output line: > 16 µg/mL
